# assay system: D(3) dopamine receptor (Homo sapiens, UniProt P35462)
# Sequence (P35462 whole entry): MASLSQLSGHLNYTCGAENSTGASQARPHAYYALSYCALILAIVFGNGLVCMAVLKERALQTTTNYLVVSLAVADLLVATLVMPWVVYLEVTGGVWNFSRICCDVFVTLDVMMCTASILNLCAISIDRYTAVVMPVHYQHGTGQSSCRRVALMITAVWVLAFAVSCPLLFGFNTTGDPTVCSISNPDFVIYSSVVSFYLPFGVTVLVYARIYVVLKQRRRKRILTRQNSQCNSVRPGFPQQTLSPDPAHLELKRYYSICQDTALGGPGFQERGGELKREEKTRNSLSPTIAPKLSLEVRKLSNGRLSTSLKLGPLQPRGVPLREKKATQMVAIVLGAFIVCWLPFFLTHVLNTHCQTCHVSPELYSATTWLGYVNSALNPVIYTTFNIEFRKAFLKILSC
Assign labels as follows, please: Met for Ki below 800 nM; Not met for Ki equal to or exceeding 800 nM.

INPUT: Find out if reported Ki for `Fc1ccc(CCCCN2CCN(c3cccc(-c4ccccc4)n3)CC2)cc1` is less than 800 nM
OUTPUT: Met

INPUT: Find out if reported Ki for O=C1c2ccc(F)cc2CC1CCN1CCCN(c2ccccn2)CC1 (stereo not given) is less than 800 nM
OUTPUT: Not met

INPUT: Find out if reported Ki for `O=C(CCCN1C2CCC1CN(c1ccc(Cl)cn1)C2)c1ccc(F)cc1` is less than 800 nM
OUTPUT: Not met

INPUT: Find out if reported Ki for O=C1c2ccc(F)cc2CC1CCN1CCCN(c2ccc(Cl)cn2)CC1 (stereo not given) is less than 800 nM
OUTPUT: Met

INPUT: Find out if reported Ki for `Fc1ccc(CCCCN2CCN(c3ccc(-c4ccccc4)cn3)CC2)cc1` is less than 800 nM
OUTPUT: Not met

INPUT: Find out if reported Ki for Fc1ccc2c(c1)CC(CCN1CCCN(c3ccccn3)CC1)C2 (stereo not given) is less than 800 nM
OUTPUT: Met

INPUT: Find out if reported Ki for `O=C(CCCN1CCCN(c2ccccn2)CC1)c1ccc(F)cc1` is less than 800 nM
OUTPUT: Not met

INPUT: Find out if reported Ki for `O=C(CCCN1CCN(c2cccnc2)CC1)c1ccc(F)cc1` is less than 800 nM
OUTPUT: Met

INPUT: Find out if reported Ki for `O=C(CCCN1CCCN(c2ccc(Cl)cn2)CC1)c1ccc(F)cc1` is less than 800 nM
OUTPUT: Met

INPUT: Find out if reported Ki for `Fc1ccc(CCCCN2C3CCC2CN(c2ccc(Cl)cn2)C3)cc1` is less than 800 nM
OUTPUT: Not met

----------
# assay system: 5-hydroxytryptamine receptor 1A (Homo sapiens)
# Sequence (P08908 whole entry): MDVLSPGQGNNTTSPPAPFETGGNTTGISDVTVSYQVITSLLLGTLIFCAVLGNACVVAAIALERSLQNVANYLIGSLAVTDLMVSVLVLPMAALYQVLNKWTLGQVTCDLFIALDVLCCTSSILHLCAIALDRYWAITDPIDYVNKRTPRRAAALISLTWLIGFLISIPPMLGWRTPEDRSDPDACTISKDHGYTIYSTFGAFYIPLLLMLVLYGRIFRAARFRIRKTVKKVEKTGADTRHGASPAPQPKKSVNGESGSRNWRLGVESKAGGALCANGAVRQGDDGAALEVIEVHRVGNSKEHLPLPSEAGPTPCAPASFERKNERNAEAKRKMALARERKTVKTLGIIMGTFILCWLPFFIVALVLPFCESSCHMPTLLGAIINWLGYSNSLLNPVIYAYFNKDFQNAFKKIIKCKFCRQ
metric: Ki

INPUT: Fill in the blank: the reported Ki of `Fc1ccc(CCCCN2CCN(c3cccnc3)CC2)cc1` is ____.
OUTPUT: 18 nM

INPUT: Fill in the blank: the reported Ki of `Cc1ccc(N2CCN(CCCCc3ccc(F)cc3)CC2)nc1` is ____.
OUTPUT: 92 nM

INPUT: Fill in the blank: the reported Ki of `Fc1ccc(CCCCN2CCN(c3cccc(-c4ccccc4)n3)CC2)cc1` is ____.
OUTPUT: 155 nM

INPUT: Fill in the blank: the reported Ki of O=C1c2ccc(F)cc2CC1CCN1CCCN(c2ccccn2)CC1 (stereo not given) is ____.
OUTPUT: 886 nM

INPUT: Fill in the blank: the reported Ki of `O=C(CCCN1CCN(c2cccnc2)CC1)c1ccc(F)cc1` is ____.
OUTPUT: 97 nM

INPUT: Fill in the blank: the reported Ki of `O=C(CCCN1C2CCC1CN(c1ccc(Cl)cn1)C2)c1ccc(F)cc1` is ____.
OUTPUT: 78 nM

INPUT: Fill in the blank: the reported Ki of `Fc1ccc(CCCCN2CCN(c3ccc(-c4ccccc4)cn3)CC2)cc1` is ____.
OUTPUT: 1460 nM

INPUT: Fill in the blank: the reported Ki of `Fc1ccc(CCCCN2C3CCC2CN(c2ccc(Cl)cn2)C3)cc1` is ____.
OUTPUT: 94.2 nM

INPUT: Fill in the blank: the reported Ki of `O=C(CCCN1CCCN(c2ccc(Cl)cn2)CC1)c1ccc(F)cc1` is ____.
OUTPUT: 259 nM

INPUT: Fill in the blank: the reported Ki of O=C1c2ccc(F)cc2CC1CCN1CCCN(c2ccc(Cl)cn2)CC1 (stereo not given) is ____.
OUTPUT: 209 nM
